Please respond with reported IC50 for every item in the list.
# METHOD_DESCRIPTION: Cytotoxicity against human HuH7 cells assessed as release of lactate dehydrogenase
# Format: cell-based, Huh-7
# TEST_PARAMETERS: Homo sapiens, Huh-7
Give the value in nM but do not write nM after it.

Q: Tell me its IC50 given `C/C=C/C[C@@H](C)[C@@H](O)[C@H]1C(=O)N[C@@H](CC)C(=O)N(C)CC(=O)N(C)[C@@H](CC(C)C)C(=O)N[C@@H](C(C)C)C(=O)N(C)[C@@H](CC(C)C)C(=O)N[C@@H](C)C(=O)N[C@H](CCN(C)C)C(=O)N(C)[C@@H](CC(C)C)C(=O)N(C)[C@@H](CC(C)C)C(=O)N(C)[C@@H](C(C)C)C(=O)N1C` as the entry.
Ans: 3280

Q: Tell me its IC50 given `C/C=C/C[C@@H](C)[C@@H](O)[C@H]1C(=O)N[C@@H](CC)C(=O)N(C)CC(=O)N(C)[C@@H](CC(C)C)C(=O)N[C@@H](C(C)C)C(=O)N(C)[C@@H](CC(C)C)C(=O)N[C@@H](C)C(=O)N[C@H](CCCN(CC)CC)C(=O)N(C)[C@@H](CC(C)C)C(=O)N(C)[C@@H](CC(C)C)C(=O)N(C)[C@@H](C(C)C)C(=O)N1C` as the entry.
Ans: 1820

Q: Tell me its IC50 given `C/C=C/C[C@@H](C)[C@@H](O)[C@H]1C(=O)N[C@@H](CC)C(=O)N(C)CC(=O)N(C)[C@@H](CC(C)C)C(=O)N[C@@H](C(C)C)C(=O)N(C)[C@@H](CC(C)C)C(=O)N[C@@H](C)C(=O)N[C@H](CCCCNC(=O)C(C)(C)C)C(=O)N(C)[C@@H](CC(C)C)C(=O)N(C)[C@@H](CC(C)C)C(=O)N(C)[C@@H](C(C)C)C(=O)N1C` as the entry.
Ans: 2560

###

Below are pIC50 values recorded for UniProt:P23284.
Sequence (P23284 whole entry): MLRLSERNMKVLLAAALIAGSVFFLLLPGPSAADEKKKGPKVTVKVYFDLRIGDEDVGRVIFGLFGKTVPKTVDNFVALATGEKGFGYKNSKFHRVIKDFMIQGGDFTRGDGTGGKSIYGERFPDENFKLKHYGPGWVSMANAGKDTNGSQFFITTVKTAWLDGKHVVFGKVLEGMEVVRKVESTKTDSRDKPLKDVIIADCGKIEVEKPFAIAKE
The quantity pIC50 is defined as the negative base-10 logarithm of the molar concentration.

Q: Tell me its pIC50 given `C/C=C/C[C@@H](C)[C@@H](O)[C@H]1C(=O)N[C@@H](CC)C(=O)N(C)CC(=O)N(C)[C@@H](CC(C)C)C(=O)N[C@@H](C(C)C)C(=O)N(C)[C@@H](CC(C)C)C(=O)N[C@@H](C)C(=O)N[C@H](CCCCNC(=O)C(C)(C)C)C(=O)N(C)[C@@H](CC(C)C)C(=O)N(C)[C@@H](CC(C)C)C(=O)N(C)[C@@H](C(C)C)C(=O)N1C` as the entry.
Ans: 7.69

Q: Tell me its pIC50 given `C/C=C/C[C@@H](C)[C@@H](O)[C@H]1C(=O)N[C@@H](CC)C(=O)N(C)CC(=O)N(C)[C@@H](CC(C)C)C(=O)N[C@@H](C(C)C)C(=O)N(C)[C@@H](CC(C)C)C(=O)N[C@@H](C)C(=O)N[C@H](CCCNC(=O)C(C)(C)C)C(=O)N(C)[C@@H](CC(C)C)C(=O)N(C)[C@@H](CC(C)C)C(=O)N(C)[C@@H](C(C)C)C(=O)N1C` as the entry.
Ans: 7.52

Q: Tell me its pIC50 given `C/C=C/C[C@@H](C)[C@@H](O)[C@H]1C(=O)N[C@@H](CC)C(=O)N(C)CC(=O)N(C)[C@@H](CC(C)C)C(=O)N[C@@H](C(C)C)C(=O)N(C)[C@@H](CC(C)C)C(=O)N[C@@H](C)C(=O)N[C@H](CN)C(=O)N(C)[C@@H](CC(C)C)C(=O)N(C)[C@@H](CC(C)C)C(=O)N(C)[C@@H](C(C)C)C(=O)N1C` as the entry.
Ans: 7.10
